# assay-remarks: in vitro
# measurement-conditions: human, 0.42 mg, pH 7.4
value-kind: k el (s⁻¹)

molecule	recorded-measurement
O=C(c1ccc(Cl)cc1Cl)N1CCO[C@@H](c2ccccc2)C1 [F0045(S)]	0.000283

---

# assay-remarks: in vitro
# measurement-conditions: human, microsomes, pH 7.4

molecule	result-unit	microsomal CLint
O=C(c1ccc(Cl)cc1Cl)N1CCO[C@@H](c2ccccc2)C1 [F0045(S)]	µL/min/mg	41

---

# assayed-system: H5 A/Vietnam/1203/2004 HA (Influenza A virus, UniProt Q5EP31)
# assay-remarks: biochemical
value-kind: EC50 (µM)

compound	value-kind	recorded-measurement
O=C(c1ccc(Cl)cc1Cl)N1CCO[C@@H](c2ccccc2)C1 [F0045(S)]	EC50	16.2
